Test: Solubility in gastric juice or intestinal juice model fluid (precipitation method using DMSO)
Assay type: physicochemical
Conditions: pH 6.8, kinetic from dmso stock, 2nd fluid for Disintegration Test of Japanese Pharmacopoeia (pH: 6.8), room temperature, read-out: Solubility (μg/mL) 2nd fluid

| COMPOUND | RELATIONAL_OPERATOR | solubility at 24 h / µg/mL |
| --- | --- | --- |
| COc1cc(OC(C)c2cccc(C(F)(F)F)n2)ccc1-c1[nH]c(-c2ccc(F)nc2)nc1Cl (stereo not shown) | < | 1.8 |
| COc1cc(OCc2cc(C(F)(F)F)ccn2)ccc1-c1c[nH]c(-c2ccc(Cl)nc2)n1 | = | 0.6 |
| COc1cc(-c2c[nH]c(-c3ccc(Cl)nc3)n2)c(OC)cc1OCc1ccc(C(F)(F)F)cn1 | = | 0.8 |
| COc1cc(OCc2ncccc2C(F)(F)F)ccc1-c1c[nH]c(-c2ccc(F)nc2)n1 | = | 1.8 |
| COc1cc(-c2cnc(C3CC3)[nH]2)ccc1OCc1ncc(C(F)(F)F)cc1F | = | 79.4 |
| COCCOc1cc(OCc2ccc(C(F)(F)F)cn2)ccc1-c1c[nH]c(-c2ccc(Cl)nc2)n1 | < | 1.8 |
| COc1cc(OCc2cccc(C#N)n2)ccc1-c1cnc(C2CCC(F)(F)CC2)[nH]1 | < | 0.3 |
| COc1cc(OCc2ccc(C(F)(F)F)cn2)ccc1-c1[nH]c(C2CCCC(F)(F)C2)nc1Cl (stereo not shown) | = | 1.9 |
| COc1cc(OCc2ccc(C(F)(F)F)cn2)ccc1-c1nc(C2CCC(F)(F)CC2)n(CC2CC2)c1Cl | < | 9.9 |
| COc1cc(OCc2ccc(Br)cc2F)ccc1-c1c[nH]c(-c2ccccn2)n1 | = | 0.6 |
| COc1cc(OCc2ccc(C(F)(F)F)cn2)ccc1-c1cn(C)c(-c2ccc(Cl)nc2)n1 | < | 0.3 |
| COc1cc(OCc2ncc(C(F)(F)F)cc2F)ccc1-c1cnc(C2CCCC2)[nH]1 | = | 31.2 |
| COc1cc(OC(C)c2ccc(C(F)(F)F)cc2)ccc1-c1[nH]c(-c2ccc(F)nc2)nc1Cl (stereo not shown) | = | 29.9 |
| COc1cc(OCc2ccc(Br)cc2F)ccc1-c1c[nH]c(-c2ccc(C)nc2)n1 | < | 0.3 |
| COc1cc(OCc2ccc(C(F)(F)F)cn2)ccc1-c1c[nH]c(-c2ccc(F)nc2)n1 | < | 1.6 |
| Oc1cc(OCc2ncc(C(F)(F)F)cc2F)ccc1-c1[nH]c(-c2ccc(F)nc2)nc1Br | < | 0.4 |
| Fc1ccc(-c2ncc(-c3ccc(OCc4ncc(C(F)(F)F)cc4F)cc3)[nH]2)cn1 | = | 4.6 |
| COc1cc(OCc2ccc(C(F)(F)F)cn2)ccc1-c1[nH]c(-c2ccc(Cl)nc2)nc1I | < | 0.4 |
| COc1cc(OCc2ncc(C(F)(F)F)cc2F)ccc1-c1[nH]c(-c2ccc(F)nc2)nc1Cl | = | 9.3 |
| COc1cc(OCc2ccc(C(F)(F)F)nc2)ccc1-c1[nH]c(-c2ccc(F)nc2)nc1I | = | 13.6 |
| COc1cc(-c2cnc(C(C)C)[nH]2)ccc1OCc1ncc(C(F)(F)F)cc1F | = | 62.1 |
| COc1cc(OCc2ccc(C(F)(F)F)nc2)c(C)cc1-c1[nH]c(C2CCC(F)(F)CC2)nc1Br | < | 0.4 |
